# target desc: TBK1 (Homo sapiens)
# Construct: purchased Life Technologies (Invitrogen)
# Sequence (Q9UHD2 whole entry): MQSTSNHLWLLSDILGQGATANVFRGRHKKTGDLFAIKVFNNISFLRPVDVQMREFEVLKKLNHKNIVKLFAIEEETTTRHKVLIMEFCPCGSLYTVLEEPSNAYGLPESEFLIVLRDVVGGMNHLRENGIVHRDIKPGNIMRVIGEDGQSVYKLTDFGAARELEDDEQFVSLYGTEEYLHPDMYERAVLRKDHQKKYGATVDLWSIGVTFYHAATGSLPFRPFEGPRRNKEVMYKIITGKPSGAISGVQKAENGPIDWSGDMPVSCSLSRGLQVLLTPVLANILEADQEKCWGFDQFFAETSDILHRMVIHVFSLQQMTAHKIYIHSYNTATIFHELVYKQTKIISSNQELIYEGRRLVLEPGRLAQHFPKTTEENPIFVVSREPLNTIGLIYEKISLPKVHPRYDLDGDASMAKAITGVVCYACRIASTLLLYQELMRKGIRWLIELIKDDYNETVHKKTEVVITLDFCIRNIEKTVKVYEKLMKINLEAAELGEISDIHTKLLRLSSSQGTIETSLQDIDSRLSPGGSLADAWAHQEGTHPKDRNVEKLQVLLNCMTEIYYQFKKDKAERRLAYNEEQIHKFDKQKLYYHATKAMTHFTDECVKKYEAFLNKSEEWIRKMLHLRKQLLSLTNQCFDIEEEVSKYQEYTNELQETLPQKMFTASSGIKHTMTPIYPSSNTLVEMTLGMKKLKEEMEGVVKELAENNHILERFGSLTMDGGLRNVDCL
# assay: MCE (microfluidic capillary electrophoresis) kinase assay, phosphorylation of 5-FAM-TBK1-Tide by TBK1
# Format: biochemical
# condition description: compound at 10 µM, after 2 hours (at completion of the assay); LOPAC set
metric name: percent inhibition of TBK1 (%)
One number for each entry, in %.

Recorded percent inhibition of TBK1, per entry:
| compound | metric name | observed |
| --- | --- | --- |
| COc1cc(/C=C(\C#N)C(=O)Nc2nnc(C(F)(F)F)s2)ccc1OCc1ccc(C(F)(F)F)cc1C(F)(F)F | percent inhibition of TBK1 | 71.5 |
| O=c1cc(-c2ccccc2F)[nH]c2cc3c(cc12)OCO3 [UNC10100799, CHM-1 hydrate] | percent inhibition of TBK1 | 67.5 |
| CN(C)CCC(c1ccc(Cl)cc1)c1ccccn1.O=C(O)/C=C\C(=O)O (racemic) [UNC10100321, (±)-Chlorpheniramine maleate salt] | percent inhibition of TBK1 | 84.5 |

List the reported percent inhibition of TBK1 of each compound below.
1. NC(Cc1cc(O)c(O)cc1O)C(=O)O (racemic) [UNC10100691, 6-Hydroxy-DL-DOPA]
2. O=C1Nc2ccccc2/C1=C1/Nc2ccccc2/C1=N\O
3. CN(C)CCC(c1ccccc1)c1ccccn1.O=C(O)/C=C\C(=O)O (stereo not shown) [UNC10101037, Pheniramine maleate salt]
4. Brc1ccc([C@H]2CN3CCSC3=N2)cc1.O=C(O)C(=O)O [UNC10100081, (−)-p-Bromolevamisole oxalate]

1. 77.5
2. 58
3. 80.5
4. 70

Provenance of the data: paper PMC3408500
